src = ChEMBL document CHEMBL4359838

Species: Oryctolagus cuniculus
Assay: Inhibition of rabbit muscle Glycogen phosphorylase b at 625 uM using glucose-1-phosphate as substrate in presence of AMP relative to control
Calls of active or inactive are those of the source. No cut-off for these calls is given here.

compound-structure-string: O=C1N=C(c2cccc3ccccc23)N[C@]12O[C@H](CO)[C@@H](O)[C@H](O)[C@H]2O
inhibition: inactive
//
compound-structure-string: O=C1N=C(c2ccc(C(F)(F)F)cc2)N[C@]12O[C@H](CO)[C@@H](O)[C@H](O)[C@H]2O
inhibition: inactive
//
compound-structure-string: O=C1N=C(c2ccc3ccccc3c2)N[C@]12O[C@H](CO)[C@@H](O)[C@H](O)[C@H]2O
inhibition: 25%
//
compound-structure-string: O=C1N=C(c2ccc(C(F)(F)F)cc2)N[C@@]12O[C@H](CO)[C@@H](O)[C@H](O)[C@H]2O
inhibition: inactive
